Where do the numbers come from? From patent US20090023721A1.

Molecular target: human cloned 5-HT2A receptor, expressed in L929 cells (Homo sapiens)
Construct: expressed in transfected cells; host or cells: L929 cells
Sequence (P28223 whole entry): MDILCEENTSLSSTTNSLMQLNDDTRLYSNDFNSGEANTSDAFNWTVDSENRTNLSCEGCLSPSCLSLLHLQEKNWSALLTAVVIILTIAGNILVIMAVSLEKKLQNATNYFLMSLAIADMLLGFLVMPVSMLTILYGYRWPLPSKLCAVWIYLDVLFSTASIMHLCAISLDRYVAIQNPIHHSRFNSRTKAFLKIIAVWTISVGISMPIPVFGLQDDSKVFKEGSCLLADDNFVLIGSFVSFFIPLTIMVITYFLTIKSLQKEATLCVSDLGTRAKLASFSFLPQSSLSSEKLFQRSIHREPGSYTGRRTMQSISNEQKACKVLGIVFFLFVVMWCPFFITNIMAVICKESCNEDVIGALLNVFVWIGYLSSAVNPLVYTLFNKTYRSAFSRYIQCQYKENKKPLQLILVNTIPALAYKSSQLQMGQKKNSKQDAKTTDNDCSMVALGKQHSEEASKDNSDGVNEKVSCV
Experiment: In vitro radioligand binding affinity for 5-HT2A receptor ([125I]R91150)
Conditions: human cloned 5-HT2A receptor in L929 cells, [125I]R91150; read-out: h-5HT2A (converted)
Protocol: The interaction of the compounds of Formula (I) with 5-HT2A and 5-HT2C receptors was assessed in in vitro radioligand binding experiments. […] When equilibrium of binding is reached, the receptor bound radioactivity is separated from the non-bound radioactivity, and the receptor bound activity is counted. The interaction of the test compounds with the receptors is assessed in competition binding experiments. […]

# MOLECULE, RESULT_QUALIFIER, IC50 / nM
measured = [
    ("CN1C[C@@H]2C[C@@H]3c4ccccc4Cc4ccc(F)cc4[C@H]3N2C1 [compound 1]", "=", 115),
    ("CN(C)CC1CO[C@H]2c3cc(F)ccc3Cc3ccccc3[C@@H]12 (mixture of isomers) [compound 48]", "=", 6170),
    ("CN1C[C@@H]2C[C@@H]3c4ccccc4Cc4ccc(F)cc4[C@H]3N2C1=O [compound 16]", ">", 10000),
    ("CN1CC(=O)N2[C@@H](C[C@@H]3c4ccccc4Cc4ccc(F)cc4[C@H]32)C1 [compound 4]", ">", 1000),
    ("N[C@@H]1CO[C@H]2c3cc(F)ccc3Cc3ccccc3[C@H]2C1 [compound 30]", "=", 269),
    ("Fc1ccc2c(c1)[C@@H]1[C@H](C[C@H]3CNC(=S)N31)c1ccccc1C2 [compound 3]", ">", 1000),
    ("COCCN1[C@@H](CN(C)C)C[C@@H]2c3ccccc3Cc3ccc(F)cc3[C@H]21 [compound 40]", "=", 372),
    ("CN1C[C@H]2C[C@@H]3c4ccccc4Cc4ccc(F)cc4[C@H]3N2C1=O [compound 7]", ">", 1000),
    ("CN(C)C[C@H]1C[C@@H]2c3ccccc3Oc3ccc(F)cc3[C@H]2N1 [compound 17]", "=", 575),
    ("CNC[C@H]1C[C@@H]2c3ccccc3Cc3ccc(F)cc3[C@H]2N1C=O [compound 38]", "=", 631),
    ("CN(C)C[C@@H]1C[C@@H]2c3ccccc3Cc3ccc(F)cc3[C@H]2[S@+]1[O-] [compound 25]", ">", 10000),
    ("COCC(=O)N1[C@@H](CN(C)C)C[C@@H]2c3ccccc3Cc3ccc(F)cc3[C@H]21 [compound 10]", "=", 692),
    ("O=C1NC[C@@H]2C[C@@H]3c4ccccc4Cc4ccc(F)cc4[C@H]3N12 [compound 15]", "=", 8320),
    ("CN(C)C[C@H]1C[C@@H]2c3ccccc3Cc3ccc(F)cc3[C@H]2N1C [compound 5]", "=", 27.5),
    ("CNC[C@H]1CC[C@@H]2c3ccccc3Cc3ccc(F)cc3[C@H]2O1 [compound 46]", "=", 13.8),
]
